Reported IC50 values for a set of compounds
System: Klebsiella pneumoniae (ATCC 11296)
Assay: Antimicrobial activity (growth, OD 600 nm)
Type: cell-based
Details: 0.001–10 µM; read-out: IC50 K. pneumoniae
RESULT TYPE: IC50 (nM)

>  <COMPOUND>
CCn1cc(C(=O)[O-])c(=O)c2cc(F)c(N3CCNCC3)cc21.C[n+]1ccn(CCO)c1 [[C2OHMIM][Nor]]

>  <OBSERVED VALUE>
201

$$$$
>  <COMPOUND>
CCn1cc(C(=O)[O-])c(=O)c2cc(F)c(N3CCNCC3)cc21.COCC[n+]1ccn(C)c1 [[C3OMIM][Nor]]

>  <OBSERVED VALUE>
224

$$$$
>  <COMPOUND>
CCCCCCCCCCCCCCCC[n+]1ccccc1.O=C([O-])c1cn(C2CC2)c2cc(N3CCNCC3)c(F)cc2c1=O [[C16Py][Cip]]

>  <OBSERVED VALUE>
9.88

$$$$
>  <COMPOUND>
CCn1cc(C(=O)[O-])c(=O)c2cc(F)c(N3CCNCC3)cc21.CCn1cc[n+](C)c1 [[EMIM][Nor]]

>  <OBSERVED VALUE>
208

$$$$

###

The entries below come with measured IC50 values attached.
Test system: 3T3 mouse fibroblasts
Experiment: Cytotoxicity on 3T3 cells (MTT)
Assay type: cell-based
RESULT TYPE: IC50 (µM)

>  <COMPOUND>
CCCCCCCCCCCCCCCC[n+]1ccccc1.CCn1cc(C(=O)[O-])c(=O)c2cc(F)c(N3CCNCC3)cc21 [[C16Py][Nor]]

>  <OBSERVED VALUE>
5.17

$$$$
>  <COMPOUND>
CCCCCCCCCCCCCCCC[n+]1ccccc1.O=C([O-])c1cn(C2CC2)c2cc(N3CCNCC3)c(F)cc2c1=O [[C16Py][Cip]]

>  <OBSERVED VALUE>
4.72

$$$$

###

Tested on: Staphylococcus aureus (ATCC 25923)
Assay: Antimicrobial activity (growth, OD 600 nm)
Type: cell-based
Settings: relative decrease of inhibitory concentration vs ciprofloxacin
RESULT TYPE: RDIC50 S. aureus

>  <COMPOUND>
COCC[n+]1ccn(C)c1.O=C([O-])c1cn(C2CC2)c2cc(N3CCNCC3)c(F)cc2c1=O [[C3OMIM][Cip]]

>  <RESULT TYPE>
RDIC50 S. aureus

>  <OBSERVED VALUE>
0.4

$$$$
>  <COMPOUND>
Cc1n(CCO)cc[n+]1C.O=C([O-])c1cn(C2CC2)c2cc(N3CCNCC3)c(F)cc2c1=O [[C2OHDMIM][Cip]]

>  <RESULT TYPE>
RDIC50 S. aureus

>  <OBSERVED VALUE>
1.4

$$$$
>  <COMPOUND>
C[N+](C)(C)CCO.O=C([O-])c1cn(C2CC2)c2cc(N3CCNCC3)c(F)cc2c1=O [[Ch][Cip]]

>  <RESULT TYPE>
RDIC50 S. aureus

>  <OBSERVED VALUE>
0.2

$$$$
>  <COMPOUND>
CCCCCCCCCCCCCCCC[n+]1ccccc1.O=C([O-])c1cn(C2CC2)c2cc(N3CCNCC3)c(F)cc2c1=O [[C16Py][Cip]]

>  <RESULT TYPE>
RDIC50 S. aureus

>  <OBSERVED VALUE>
0.0

$$$$
>  <COMPOUND>
CCn1cc[n+](C)c1.O=C([O-])c1cn(C2CC2)c2cc(N3CCNCC3)c(F)cc2c1=O [[EMIM][Cip]]

>  <RESULT TYPE>
RDIC50 S. aureus

>  <OBSERVED VALUE>
1.2

$$$$
